FYI, the data here is from ChEMBL document CHEMBL5257130.

method.summary: MRT in CD(SD) rat at 3 mg/kg, po measured upto 25 hrs
Format: ADME, organism-based
condition.notes: in vivo
endpoint.name: MRT (h)
Numeric only. Scale: h

Just so you know, measured MRT for Cc1ccc([C@@H](NC(=O)[C@@H](F)c2ccc3c(c2)CCCC3)[C@@H](C)C(=O)O)cc1 came out at 10

====

method.summary: Apparent permeability in human Caco-2 cells at 25 micromol/L incubated for 2 hrs by LC/MS/MS analysis
Format: ADME, cell-based
condition.notes: dose 25 µmol/L
endpoint.name: Papp at 2 h, 25 µM (×10⁻⁶ cm/s)
Numeric only. Scale: ×10⁻⁶ cm/s

{"structure.as.smiles": "CO[C@H](C(=O)N[C@H](c1ccc(C)cc1)[C@@H](C)C(=O)O)c1ccccc1", "val": 3.4}

Just so you know, measured Papp at 2 h, 25 µM for Cc1ccc([C@@H](NC(=O)[C@H](F)c2ccccc2)[C@@H](C)C(=O)O)cc1 came out at 6.6

Just so you know, measured Papp at 2 h, 25 µM for Cc1ccc([C@@H](NC(=O)C(=O)c2ccccc2)[C@@H](C)C(=O)O)cc1 came out at 1.7

Just so you know, measured Papp at 2 h, 25 µM for Cc1ccc([C@@H](NC(=O)[C@@H](F)c2ccc3c(c2)CCCC3)[C@@H](C)C(=O)O)cc1 came out at 33

Just so you know, measured Papp at 2 h, 25 µM for Cc1ccc([C@@H](NC(=O)C(F)(F)c2ccccc2)[C@@H](C)C(=O)O)cc1 came out at 15

====

method.summary: MRT in CD(SD) rat at 1 mg/kg, iv measured upto 25 hrs
Format: ADME, organism-based
condition.notes: in vivo
endpoint.name: MRT (h)
Numeric only. Scale: h

Just so you know, measured MRT for Cc1ccc([C@@H](NC(=O)[C@@H](F)c2ccc3c(c2)CCCC3)[C@@H](C)C(=O)O)cc1 came out at 5.6

====

method.summary: Apparent permeability in human Caco-2 cells at 25 micromol/L incubated for 2 hrs by LC/MS/MS analysis
Format: ADME, cell-based
condition.notes: dose 25 µmol/L
Classify as follows. Reported Papp at 2 h, 25 µM greater than or equal to 2 ×10⁻⁶ cm/s: true. Reported Papp at 2 h, 25 µM below: false.

{"compound": "Cc1ccc([C@@H](NC(=O)Cc2ccccc2)[C@@H](C)C(=O)O)cc1", "group.label": "true"}
{"compound": "Cc1ccc([C@@H](NC(=O)Cc2ccc3c(c2)CCCC3)[C@@H](C)C(=O)O)cc1", "group.label": "true"}
{"compound": "Cc1ccc([C@@H](NC(=O)[C@H](O)c2ccccc2)[C@@H](C)C(=O)O)cc1", "group.label": "false"}
{"compound": "Cc1ccc([C@@H](NC(=O)[C@@H](O)c2ccccc2)[C@@H](C)C(=O)O)cc1", "group.label": "false"}
{"compound": "COc1ccc(S(=O)(=O)Nc2ccc(N3CCCCCC3)cc2C(=O)O)cc1", "group.label": "true"}

Evaluate Cc1ccc(C(CC(=O)O)NC(=O)Cc2ccc3c(c2)CCCC3)cc1 (configuration not stated) : Papp at 2 h, 25 µM at minimum 2 ×10⁻⁶ cm/s?
true

Evaluate Cc1ccc([C@@H](NC(=O)[C@@H](F)c2ccccc2)[C@@H](C)C(=O)O)cc1 : Papp at 2 h, 25 µM at minimum 2 ×10⁻⁶ cm/s?
true
